# target-or-test-system: GABAA receptor α2β3γ2 (Homo sapiens, UniProt P18507+P47869)
# Construct: expressed in transfected cells; host or cells: Xenopus laevis oocytes injected with cRNA
# Sequence (P47869 29-451): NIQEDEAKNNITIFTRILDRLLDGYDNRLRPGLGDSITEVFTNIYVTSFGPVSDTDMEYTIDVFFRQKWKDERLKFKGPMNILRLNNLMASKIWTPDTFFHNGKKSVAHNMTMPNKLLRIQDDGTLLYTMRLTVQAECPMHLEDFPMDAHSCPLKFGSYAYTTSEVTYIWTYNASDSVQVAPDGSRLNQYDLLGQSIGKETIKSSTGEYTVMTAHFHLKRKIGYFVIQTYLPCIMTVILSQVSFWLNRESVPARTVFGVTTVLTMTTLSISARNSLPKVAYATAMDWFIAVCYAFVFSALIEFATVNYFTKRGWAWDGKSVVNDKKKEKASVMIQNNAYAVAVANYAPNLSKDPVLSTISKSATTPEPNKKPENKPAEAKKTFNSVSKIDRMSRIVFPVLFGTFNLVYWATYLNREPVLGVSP
# Sequence (P28472 26-473 partner): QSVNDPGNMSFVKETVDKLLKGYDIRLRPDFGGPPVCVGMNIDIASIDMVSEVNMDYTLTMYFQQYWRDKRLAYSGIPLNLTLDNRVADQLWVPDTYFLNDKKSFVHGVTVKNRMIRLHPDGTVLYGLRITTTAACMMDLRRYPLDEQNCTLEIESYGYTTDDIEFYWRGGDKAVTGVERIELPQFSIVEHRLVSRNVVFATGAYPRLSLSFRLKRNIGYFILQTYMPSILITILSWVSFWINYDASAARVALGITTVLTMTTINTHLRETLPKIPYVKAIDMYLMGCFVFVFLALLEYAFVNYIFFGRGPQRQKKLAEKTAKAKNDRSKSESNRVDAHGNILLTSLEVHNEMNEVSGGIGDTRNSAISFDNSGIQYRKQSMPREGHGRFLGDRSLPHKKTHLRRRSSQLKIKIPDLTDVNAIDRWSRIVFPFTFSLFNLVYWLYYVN
# Sequence (P18507 40-475): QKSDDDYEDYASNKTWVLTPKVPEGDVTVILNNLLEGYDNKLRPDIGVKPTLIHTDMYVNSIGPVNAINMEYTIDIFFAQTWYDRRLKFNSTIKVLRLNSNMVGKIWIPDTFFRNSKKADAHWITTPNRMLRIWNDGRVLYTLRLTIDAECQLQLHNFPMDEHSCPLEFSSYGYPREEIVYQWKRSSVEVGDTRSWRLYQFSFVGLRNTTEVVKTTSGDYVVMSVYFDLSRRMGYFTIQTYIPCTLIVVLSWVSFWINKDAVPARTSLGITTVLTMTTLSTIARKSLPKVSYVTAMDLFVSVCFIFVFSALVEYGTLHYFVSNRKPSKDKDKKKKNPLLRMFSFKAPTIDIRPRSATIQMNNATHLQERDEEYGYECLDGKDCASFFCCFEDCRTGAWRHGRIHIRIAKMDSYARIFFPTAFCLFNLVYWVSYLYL
# test-summary: Two-electrode voltage-clamp potentiation of GABA EC10 current in Xenopus oocytes, GABAA2
# Format: cell-based
# experimental-context: percentage potentiation of GABA EC10 current divided by that of diazepam
Rule: measured Relative Potentiation for GABAA2 below 0.2 gets 1; anything equal to or greater than 0.2 gets -1.

Regarding "Cc1ccc(-c2cccc3c(N)c4c(nc23)CN(C2CC2)C4=O)c(F)n1" , kindly confirm whether its Relative Potentiation for GABAA2 is beneath 0.2.
1

Regarding "CCN1Cc2nc3c(-c4c(F)cccc4OC)c(F)ccc3c(N)c2C1=O" , kindly confirm whether its Relative Potentiation for GABAA2 is beneath 0.2.
1

Regarding "COc1ccc(-c2cccc3c(N)c4c(nc23)CN(C2CCCC2)C4=O)cn1" , kindly confirm whether its Relative Potentiation for GABAA2 is beneath 0.2.
-1

Regarding "C=Cc1ccccc1-c1c(F)ccc2c(N)c3c(nc12)CN(C1CCC1)C3=O" , kindly confirm whether its Relative Potentiation for GABAA2 is beneath 0.2.
1

Regarding "CCCN1Cc2nc3c(-c4cc(F)ccc4OC)cccc3c(N)c2C1=O" , kindly confirm whether its Relative Potentiation for GABAA2 is beneath 0.2.
-1

Regarding "CCN1Cc2nc3c(-c4cc(F)ccc4OC)c(F)ccc3c(N)c2C1=O" , kindly confirm whether its Relative Potentiation for GABAA2 is beneath 0.2.
-1

Regarding "CCCN1Cc2nc3c(-c4ccc(C)nc4F)cccc3c(N)c2C1=O" , kindly confirm whether its Relative Potentiation for GABAA2 is beneath 0.2.
-1

Regarding "COc1ccc(-c2cccc3c(N)c4c(nc23)CN(C2CC2)C4=O)c(F)c1" , kindly confirm whether its Relative Potentiation for GABAA2 is beneath 0.2.
1

Regarding "COc1ncc(-c2c(F)ccc3c(N)c4c(nc23)CN(C2CC2)C4=O)c(OC)n1" , kindly confirm whether its Relative Potentiation for GABAA2 is beneath 0.2.
-1

All values here come from patent US20080318943A1.
